These data points were gathered from paper PMC12040169.

Quick reference for viability at 28.5 h, 10 µM among some compounds
protocolText: in vitro
studyConditions: human, hela cells, % viability

Prompt line: // returns reported viability at 28.5 h, 10 µM for input CCOC(=O)CC1C(=O)NCCN1Cc1ccoc1 (centres unmarked) [CBK270066]
Response line: 92.4%

Prompt line: // returns reported viability at 28.5 h, 10 µM for input COC(=O)c1c(NC(=O)C(Sc2ccccc2)c2ccccc2)sc2c1CCC(C(C)(C)C)C2 (centres unmarked) [CBK262603]
Response line: 105%

Prompt line: // returns reported viability at 28.5 h, 10 µM for input CSc1ccc(SC/C(N)=N/O)cc1 [CBK025411C]
Response line: 96.1%

Prompt line: // returns reported viability at 28.5 h, 10 µM for input COC(=O)c1sccc1Oc1ccc([N+](=O)[O-])cn1 [CBK066826]
Response line: 115%

Prompt line: // returns reported viability at 28.5 h, 10 µM for input COc1cc(Nc2nc(-c3cccc4ccccc34)cn3ccnc23)cc(OC)c1OC [CBK036608]
Response line: 96.1%

----------
protocolText: in vitro
studyConditions: human, hela cells, % viability
Quick reference for viability at 28.5 h, 10 µM among some molecules

Below are worked cases with known answers.
[
  {
    "molecule": "CCC1=C(c2ccc(Cl)cc2)CCC(C(=O)NCCCN(C)C)C1C (centres unmarked) [CBK012578]",
    "viability at 28.5 h, 10 µM": "74.1%"
  },
  {
    "molecule": "CN(C)CCCNC(=O)c1cccc(Nc2cncc(-c3ccc(O)cc3)n2)c1 [CBK122669]",
    "viability at 28.5 h, 10 µM": "87.7%"
  },
  {
    "molecule": "OC[C@H]1O[C@@H](n2cnc3c(Cl)nccc32)C[C@H]1O [CBK201273]",
    "viability at 28.5 h, 10 µM": "88.5%"
  },
  {
    "molecule": "O=C1CC(N2CCN(Cc3ccc4c(c3)OCO4)CC2)C(=O)N1c1ccc(Br)cc1 (centres unmarked) [CBK074544]",
    "viability at 28.5 h, 10 µM": "89.9%"
  }
]

Then this molecule:
Prompt line: // returns reported viability at 28.5 h, 10 µM for input Cc1cc(=O)oc2cc(SCc3ccc(Cl)s3)ccc12 [CBK002898]
Response line: 89.5%

----------
protocolText: in vitro
studyConditions: human, hela cells, % viability
readoutKind: viability at 28.5 h, 10 µM (%)
Quick reminder: number only, in %, skip the unit.

[
  {
    "compound": "Cc1cc(NS(=O)(=O)N2CCCCC2)no1 [CBK269947]",
    "unitOfMeasure": "%",
    "measuredValue": 100
  },
  {
    "compound": "O=C(O)CCSc1nc(-c2ccccc2)c(-c2ccccc2)n1-c1ccccc1 [CBK264837]",
    "unitOfMeasure": "%",
    "measuredValue": 113
  },
  {
    "compound": "CCc1oc2ccc(Cl)cc2c1C(=O)CCN1CCCCC1 [CBK009675C]",
    "unitOfMeasure": "%",
    "measuredValue": 99.1
  }
]

Prompt line: // returns reported viability at 28.5 h, 10 µM for input CC(=O)Nc1ccc(S(=O)(=O)Nc2ccc(CC#N)cc2)cc1Cl [CBK044058]
Response line: 87.8

Prompt line: // returns reported viability at 28.5 h, 10 µM for input C=C(C)CNc1ccccc1C(=O)OC [CBK003656C]
Response line: 89.1

Prompt line: // returns reported viability at 28.5 h, 10 µM for input Cn1cc(CN2CCOC[C@H]2c2nc(C(C)(C)C)c[nH]2)c2ccccc21 [CBK289322]
Response line: 118

Prompt line: // returns reported viability at 28.5 h, 10 µM for input Nc1nc(SCC(=O)NCc2ccco2)n[nH]1 [CBK266572]
Response line: 94

----------
Quick reference for viability at 28.5 h, 10 µM among some molecules
protocolText: in vitro
studyConditions: human, hela cells, % viability
Quick reminder: number only, in %, skip the unit.

Prompt line: // returns reported viability at 28.5 h, 10 µM for input CCn1ncnc1CN1CCN(C2Cc3ccccc3C2)CC1
Response line: 101

Prompt line: // returns reported viability at 28.5 h, 10 µM for input CC(=O)NCCCCCC(=O)Nc1ccc(C(=O)O)cc1
Response line: 101

Prompt line: // returns reported viability at 28.5 h, 10 µM for input c1ccc(C(NCc2cnc(-c3cnccn3)s2)C2CCC2)cc1 (centres unmarked)
Response line: 106

Prompt line: // returns reported viability at 28.5 h, 10 µM for input O=[N+]([O-])c1ccc(/C=N/C23CN4CN(CN(C4)C2)C3)s1
Response line: 105

Prompt line: // returns reported viability at 28.5 h, 10 µM for input Cc1oc2c(CN(C)C)c(O)ccc2c(=O)c1-c1cnn(-c2ccccc2)c1
Response line: 101

----------
protocolText: in vitro
studyConditions: human, hela cells, % viability
Quick reference for viability at 28.5 h, 10 µM among some compounds
Quick reminder: number only, in %, skip the unit.

[
  {
    "compound": "Cc1ccccc1CN1CCN(CC(=O)Nc2ccccc2C(N)=O)CC1 [CBK270296]",
    "measuredValue": 94.1
  }
]

Prompt line: // returns reported viability at 28.5 h, 10 µM for input CCCC(=O)Nc1ccc(C(=O)N2CCN(CC)CC2)cc1 [CBK304218]
Response line: 88.6

Prompt line: // returns reported viability at 28.5 h, 10 µM for input Cc1ccc2oc(C(=O)Nc3sc4c(c3C(=O)NCC3CCCO3)CCC4)c(C)c2c1 (stereo not shown) [CBK266282]
Response line: 111

Prompt line: // returns reported viability at 28.5 h, 10 µM for input O=C(CCn1cccn1)NC(Cc1ccsc1)c1cccnc1 (stereo not shown) [CBK285393]
Response line: 101

Prompt line: // returns reported viability at 28.5 h, 10 µM for input O=S(=O)(c1ccccc1)c1ccc(N2CCNCC2)cc1 [CBK018452]
Response line: 97.8

Prompt line: // returns reported viability at 28.5 h, 10 µM for input CN1CCC(C(=O)NC(=O)NCCOc2cccc3ccccc23)CC1 [CBK051100]
Response line: 90.1

Prompt line: // returns reported viability at 28.5 h, 10 µM for input COc1cccc([C@H]2CN(C(C)=O)[C@@H]3CCN(C4CCCC4)C[C@H]23)c1 [CBK283375]
Response line: 89.7

Prompt line: // returns reported viability at 28.5 h, 10 µM for input COCCn1c(SC(C)C(=O)N2CCNC2=O)nc2ccccc21 (stereo not shown) [CBK305832]
Response line: 85.7

Prompt line: // returns reported viability at 28.5 h, 10 µM for input c1ccc(-c2cc(CC3(NCc4c[nH]c5ccccc45)COC3)no2)nc1 [CBK289250]
Response line: 102

Prompt line: // returns reported viability at 28.5 h, 10 µM for input Cc1nc(C2CN(c3ccnc4c(F)cccc34)CCO2)no1 (stereo not shown) [CBK304464]
Response line: 80.7

Prompt line: // returns reported viability at 28.5 h, 10 µM for input CSc1nc(N)nc2sc3c(O)cc(=O)[nH]c3c12 [CBK267457]
Response line: 105

----------
Quick reference for viability at 28.5 h, 10 µM among some compounds
protocolText: in vitro
studyConditions: human, hela cells, % viability
Quick reminder: number only, in %, skip the unit.

Below are worked cases with known answers.
[
  {
    "compound": "Cc1ccc(S(=O)(=O)N2CCOCC2)cc1C(=O)NCc1ccco1",
    "measuredValue": 102
  },
  {
    "compound": "CN(C(=O)c1ccccc1)[C@]1(C)C2CC(C[C@@H]2O)C1(C)C (some centres unmarked)",
    "measuredValue": 102
  },
  {
    "compound": "Cc1ccc(CNC(=O)N2CCC3(CC2)OCCc2c3[nH]c3ccccc23)cc1",
    "measuredValue": 93.3
  },
  {
    "compound": "CC(C)NC(=O)NC[C@H]1C[C@@H]2CCN1C[C@@H]2c1cc(-c2ccc(F)cc2)nn1C",
    "measuredValue": 88.5
  },
  {
    "compound": "COc1ccccc1NC(=S)NCCN(C)C",
    "measuredValue": 111
  }
]

Prompt line: // returns reported viability at 28.5 h, 10 µM for input COc1ccccc1C1OC(=O)CC1C(=O)N1CCN(c2ccc(Cl)cc2)CC1 (centres unmarked)
Response line: 86.2

Prompt line: // returns reported viability at 28.5 h, 10 µM for input COc1cc2c(cc1OC)C1c3ccccc3NC(=O)N1CC2 (centres unmarked)
Response line: 88

Prompt line: // returns reported viability at 28.5 h, 10 µM for input CC(=O)Nc1cccc(C(=O)N2CCOC(CCc3ccccc3)C2)c1 (centres unmarked)
Response line: 88.7

Prompt line: // returns reported viability at 28.5 h, 10 µM for input COc1cc(/C=N/n2cnnc2)ccc1OCc1cccc(C(=O)O)c1
Response line: 108

Prompt line: // returns reported viability at 28.5 h, 10 µM for input NC(=O)Nc1ccc2c(c1)ncn2C1CCCCC1
Response line: 95.6

Prompt line: // returns reported viability at 28.5 h, 10 µM for input O=C(NCCN1CCc2ccccc2C1)C1CCCCC1
Response line: 115

Prompt line: // returns reported viability at 28.5 h, 10 µM for input Clc1ccc(COc2nccnc2OCC2CCCO2)cc1Cl (centres unmarked)
Response line: 105

Prompt line: // returns reported viability at 28.5 h, 10 µM for input COc1ccc(NC(=O)c2sc(Cl)nc2C)cc1
Response line: 97.1

Prompt line: // returns reported viability at 28.5 h, 10 µM for input C=CCNC(=O)C1CCN(c2nc3ccccc3n2C)CC1
Response line: 92

Prompt line: // returns reported viability at 28.5 h, 10 µM for input CC(C)CN1CCN(S(=O)(=O)c2ccc(C(F)(F)F)cc2Cl)CC1
Response line: 113

Prompt line: // returns reported viability at 28.5 h, 10 µM for input Cc1cn(CC(=O)N2CCC(Cn3cncn3)(C3CCCCC3)CC2)c(=O)[nH]c1=O
Response line: 88.4
